- target entity: T1, corticotropin releasing factor 2 receptor
- T1 sequence (Q13324 whole entry, species assumed, looked up): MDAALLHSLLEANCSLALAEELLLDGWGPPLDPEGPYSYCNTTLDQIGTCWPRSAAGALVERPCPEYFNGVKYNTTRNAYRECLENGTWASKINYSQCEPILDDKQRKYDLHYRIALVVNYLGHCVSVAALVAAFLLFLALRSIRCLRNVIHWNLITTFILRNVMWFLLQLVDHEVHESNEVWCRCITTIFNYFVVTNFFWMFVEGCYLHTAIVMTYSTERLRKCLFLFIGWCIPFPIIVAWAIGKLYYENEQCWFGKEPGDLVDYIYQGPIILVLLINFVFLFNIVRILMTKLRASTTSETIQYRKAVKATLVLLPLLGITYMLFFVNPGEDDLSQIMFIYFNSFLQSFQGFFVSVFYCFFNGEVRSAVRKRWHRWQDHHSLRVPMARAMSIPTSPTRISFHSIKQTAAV
- assay details: cell-based or functional assay
Ends that are not written are not given here.
value type: CRF2R Emax % (%)

>>> df
                                     binder  value_unit  recorded_number
0  ZGPPISIDLPFYLLRKMIEIEKQEKEKQQAANNALLLDTI (C-terminal amide) [SEQ ID NO 230]           %              100
1  NDDPPISIDLPLQLLRNMIEMARIENEREQAGLNAKYLAEV-NH2 [SEQ ID NO 270]           %             19.3
2  ZGPPISIDLPFQLLRKVIEIEKQEKEKQQAANNARLLARI (C-terminal amide) [SEQ ID NO 279]           %              100
